# EXPERIMENTAL TARGET: Aspartate--tRNA(Asp/Asn) ligase (Mycobacterium tuberculosis (strain ATCC 25618 / H37Rv)) (UniProt P9WFW3); further: in the data most compounds retested in dose-response had high values
# TEST: Assay for Asp RNA synthetase-1 from Mycobacterium tuberculosis
# Type: functional
# Parameters: scale not given: direction of the effect not stated beside the values
# ASSAY CONDITIONS: 30 µM
ENDPOINT LABEL: Percent Effect (%)
A number alone suffices; assume %.

IN: Quick one: Percent Effect for `CCOC(=O)N1CCN(Cc2ccc(OCc3nccn3C)cc2)CC1` ?
OUT: -4.7

IN: Moving on to `Cc1noc([C@H]2C[C@H]3OCC[C@H]3N(Cc3ccc4c(c3)OCO4)C2)n1`
OUT: 2.03

IN: Moving on to `Cc1cc(C(=O)N2C[C@@H]3[C@@H](C2)OCC(=O)N3CC2CC2)no1`
OUT: 9.42

IN: Moving on to c1ccc2cc(OCCN3CCOC(Cn4cncn4)C3)ccc2c1 (stereo not given)
OUT: -2.92

IN: Moving on to Cc1cc(C)n(C2CCCN(C(=O)c3ccc(F)cc3F)C2)n1 (stereo not given)
OUT: 7.84

---

# EXPERIMENTAL TARGET: Protein translocase subunit SecA (Escherichia coli (strain K12)) (UniProt P10408)
# Sequence (P10408 whole entry): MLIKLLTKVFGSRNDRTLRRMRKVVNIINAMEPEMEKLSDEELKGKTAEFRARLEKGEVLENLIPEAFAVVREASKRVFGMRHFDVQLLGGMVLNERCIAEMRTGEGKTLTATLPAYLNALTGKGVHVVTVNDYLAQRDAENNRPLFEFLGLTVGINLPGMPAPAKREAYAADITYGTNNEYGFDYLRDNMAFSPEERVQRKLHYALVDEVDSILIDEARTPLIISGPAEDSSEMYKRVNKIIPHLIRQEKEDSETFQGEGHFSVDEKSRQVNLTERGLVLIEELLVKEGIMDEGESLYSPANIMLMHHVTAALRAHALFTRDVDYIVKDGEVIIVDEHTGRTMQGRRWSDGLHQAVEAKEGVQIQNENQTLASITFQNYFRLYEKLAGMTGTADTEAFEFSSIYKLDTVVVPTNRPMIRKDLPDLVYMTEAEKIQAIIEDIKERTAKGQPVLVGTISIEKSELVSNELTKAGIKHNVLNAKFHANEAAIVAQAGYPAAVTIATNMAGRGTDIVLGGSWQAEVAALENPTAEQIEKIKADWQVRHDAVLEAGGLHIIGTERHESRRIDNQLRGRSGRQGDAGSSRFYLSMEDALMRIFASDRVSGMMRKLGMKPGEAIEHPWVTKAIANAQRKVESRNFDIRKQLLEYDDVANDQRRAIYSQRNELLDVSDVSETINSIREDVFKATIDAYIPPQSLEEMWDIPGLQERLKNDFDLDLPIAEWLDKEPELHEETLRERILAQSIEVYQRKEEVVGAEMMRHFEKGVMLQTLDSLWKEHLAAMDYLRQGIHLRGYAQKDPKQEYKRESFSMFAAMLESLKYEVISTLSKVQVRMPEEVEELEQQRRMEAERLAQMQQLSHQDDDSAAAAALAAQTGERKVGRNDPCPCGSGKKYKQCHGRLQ
# TEST: Assay to Identify E. coli SecA ATPase Inhibitors
# Assay type: functional
# Set-up: scale not given: direction of the effect not stated beside the values
# ASSAY CONDITIONS: 30 µM
Measured potencies and affinities stand elsewhere.
ENDPOINT LABEL: Percent Effect (%)
A number alone suffices; assume %.

| MOLECULE | SCALE UNIT | Percent Effect |
| --- | --- | --- |
| CN(C)C(=O)CN1C[C@@H]2CC[C@H](C1)N(C(=O)Cc1ccccc1Cl)C2 | % | -7.08 |
| CN(Cc1cccnc1)[C@@H]1CN(CC2CC2)[C@@H]2CCCO[C@H]12 | % | -1.86 |
| COCCNC(=O)c1cn(C(C)(C)C)c2ncccc12 | % | 107 |

IN: Quick one: Percent Effect for `CC(C)(C)n1cc(C(=O)NCCCn2ccnc2)c2cccnc21` ?
OUT: 3.93

IN: Moving on to Cc1n[nH]c2c1C(c1ccc(O)c(Cl)c1)SCC(=O)N2 (stereo not drawn)
OUT: -3.6

IN: Moving on to CN1C(=O)C2(CCN(CCO)C2)c2ccccc21 (stereo not drawn)
OUT: -3.9

---

# EXPERIMENTAL TARGET: Aspartate--tRNA(Asp/Asn) ligase (Mycobacterium tuberculosis (strain ATCC 25618 / H37Rv)) (UniProt P9WFW3); further: in the data most compounds retested in dose-response had high values
# Sequence (whole entry): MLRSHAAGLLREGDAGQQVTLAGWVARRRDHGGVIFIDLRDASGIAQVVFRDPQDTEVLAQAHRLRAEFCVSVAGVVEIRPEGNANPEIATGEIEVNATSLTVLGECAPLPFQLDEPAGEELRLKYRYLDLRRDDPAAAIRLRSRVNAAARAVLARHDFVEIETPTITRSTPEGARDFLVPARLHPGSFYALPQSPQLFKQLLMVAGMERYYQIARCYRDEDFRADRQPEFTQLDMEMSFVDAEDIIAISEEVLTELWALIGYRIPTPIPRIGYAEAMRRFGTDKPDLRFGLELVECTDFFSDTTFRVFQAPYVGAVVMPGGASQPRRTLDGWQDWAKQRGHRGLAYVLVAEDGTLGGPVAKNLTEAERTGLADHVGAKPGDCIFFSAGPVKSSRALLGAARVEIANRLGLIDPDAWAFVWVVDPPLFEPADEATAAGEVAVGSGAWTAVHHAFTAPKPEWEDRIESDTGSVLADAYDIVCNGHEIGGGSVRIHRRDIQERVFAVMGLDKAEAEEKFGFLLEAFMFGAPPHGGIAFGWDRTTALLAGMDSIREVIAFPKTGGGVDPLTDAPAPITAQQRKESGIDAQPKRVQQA
# TEST: Assay for Asp RNA synthetase-1 from Mycobacterium tuberculosis
# Format: functional
# Set-up: scale not given: direction of the effect not stated beside the values
# ASSAY CONDITIONS: 30 µM
ENDPOINT LABEL: Percent Effect (%)
A number alone suffices; assume %.

| MOLECULE | SCALE UNIT | Percent Effect |
| --- | --- | --- |
| CCc1noc(C2CCCCN2C(=O)c2nnc3ccccc3n2)n1 (stereo not given) | % | 1.83 |

IN: Quick one: Percent Effect for `Cc1noc(C2CCN(C(=O)CCc3nccs3)CC2)n1` ?
OUT: -2.48

IN: Moving on to `Cc1noc(C)c1CN(C)CCC(=O)N1CCc2sccc2C1`
OUT: 5.92

IN: Moving on to `Cc1cccc(C(=O)NCc2ccnc(N(C)C)c2)n1`
OUT: -1.33

IN: Moving on to Cc1nc(CN(C)C2CCN(Cc3sc(C)nc3C)C2)no1 (stereo not given)
OUT: 0.197

---

Measured Percent Effect, listed per entry for reference.
# EXPERIMENTAL TARGET: Chromo domain-containing protein 1 (Saccharomyces cerevisiae (strain ATCC 204508 / S288c) (Baker's yeast))
# TEST: ScCHD-1 Enzyme Inhibition Assay; further: in the data most compounds retested in dose-response had high values
# Format: functional
# Parameters: scale not given: direction of the effect not stated beside the values
# ASSAY CONDITIONS: 30 µM
A number alone suffices; assume %.

The examples below pair each entry with its known result.
| MOLECULE | Percent Effect / % |
| --- | --- |
| O=C1CC2(CCCNC2)C(=O)N1Cc1ccccc1 (stereo not drawn) | -9.23 |
| c1cc(CN2C[C@@H]3COC[C@]3(COCC3CC3)C2)ccn1 | -2.5 |
| Cc1cc(CN2C[C@@H]3COC[C@]3(CNC(=O)c3ccno3)C2)no1 | 1.22 |
| Cn1ccnc1CN1CCC2(CC(=O)N(c3cncnc3)C2)C1 (stereo not drawn) | 1.86 |
| CC(C)(C)n1cc(C2=CCN(CCc3ccccc3)CC2)cn1 | -5.1 |

For the next question, use this molecule.
IN: Quick one: Percent Effect for `CC(C)CN1CCC2(C1)CN(c1ncccn1)C2` ?
OUT: -4.75

---

# EXPERIMENTAL TARGET: Aspartate--tRNA(Asp/Asn) ligase (Mycobacterium tuberculosis (strain ATCC 25618 / H37Rv)) (UniProt P9WFW3); further: in the data most compounds retested in dose-response had high values
# Sequence (whole entry): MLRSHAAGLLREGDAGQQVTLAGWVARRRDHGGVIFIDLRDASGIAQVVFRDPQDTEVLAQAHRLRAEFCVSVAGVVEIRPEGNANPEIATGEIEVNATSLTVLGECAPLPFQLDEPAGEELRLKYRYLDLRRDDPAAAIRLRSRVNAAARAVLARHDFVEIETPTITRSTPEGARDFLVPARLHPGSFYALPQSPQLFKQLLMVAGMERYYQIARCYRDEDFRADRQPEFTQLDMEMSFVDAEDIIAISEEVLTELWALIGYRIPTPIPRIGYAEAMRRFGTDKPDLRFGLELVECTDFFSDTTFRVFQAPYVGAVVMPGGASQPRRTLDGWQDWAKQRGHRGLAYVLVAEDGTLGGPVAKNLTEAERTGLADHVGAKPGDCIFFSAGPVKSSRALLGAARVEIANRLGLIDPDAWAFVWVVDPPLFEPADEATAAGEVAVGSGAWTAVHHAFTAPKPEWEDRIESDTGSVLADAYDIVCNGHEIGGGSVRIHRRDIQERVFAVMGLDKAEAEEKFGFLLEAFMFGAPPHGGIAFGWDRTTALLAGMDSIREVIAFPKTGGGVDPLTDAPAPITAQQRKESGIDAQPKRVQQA
# TEST: Assay for Asp RNA synthetase-1 from Mycobacterium tuberculosis
# Type: functional
# Parameters: scale not given: direction of the effect not stated beside the values
# ASSAY CONDITIONS: 30 µM
ENDPOINT LABEL: Percent Effect (%)
A number alone suffices; assume %.

The examples below pair each entry with its known result.
| MOLECULE | SCALE UNIT | EXPERIMENTAL RESULT |
| --- | --- | --- |
| N#Cc1cccc(NC(=O)N[C@H](CO)c2ccccc2)c1 | % | 3.31 |
| COC[C@]12COC[C@H]1CN(Cc1cc(OC)cc(OC)c1)C2 | % | -1.51 |
| CCS(=O)(=O)N1CCC2(CCCN(Cc3cc(OC)ccc3F)C2)C1 (configuration not stated) | % | 0.836 |

IN: Quick one: Percent Effect for `CCn1nc(C)c2nc(C(C)C)nc(N3CCCCC3)c21` ?
OUT: 8.83

IN: Moving on to `N#Cc1ccc(CNCC2CCN(CCO)CC2)cc1`
OUT: 5.92

IN: Moving on to `COCCN1C[C@@H]2CN(Cc3cccc(C)n3)C[C@@H]2C1=O`
OUT: 1.39

IN: Moving on to `Fc1ccc(-c2nnc(CN3CCn4c(nnc4C4CC4)C3)o2)cc1`
OUT: 3.19

IN: Moving on to `CN1CCN(C(=O)[C@@H]2CCO[C@@H]3CCN(c4ncccn4)C[C@@H]32)CC1`
OUT: 5.45

IN: Moving on to Clc1cc(CN2CCCC2Cn2cncn2)c2ncccc2c1 (configuration not stated)
OUT: -0.0583

IN: Moving on to `CC(C)c1ncncc1C(=O)NCCN1CCCS1(=O)=O`
OUT: -2.86

IN: Moving on to `O=C(NC1(c2cccc(F)c2)CCOCC1)c1ccccn1`
OUT: -1.19

IN: Moving on to `CCc1[nH]ncc1C(=O)N1CCCN(Cc2cnn(C(C)C)c2)CC1`
OUT: 6.41

IN: Moving on to `CNC(=O)C(C)(C)NC(=O)c1cc(OCC2CCC2)cc(C(=O)OC)c1`
OUT: 9.31

IN: Moving on to CCCN1CC(C(=O)Nc2ccccn2)CC1=O (configuration not stated)
OUT: -1.33

IN: Moving on to `CCCNC(=O)CSc1nnc2[nH]c(=O)cc(CC)n12`
OUT: -6.58

IN: Moving on to `O=C(c1cccnc1-n1cncn1)N1CCc2ccccc2C1`
OUT: -3.76

IN: Moving on to Cc1n[nH]c(=O)c2c(NC(=O)CN3CCCC(C(F)(F)F)C3)oc(C)c12 (configuration not stated)
OUT: -2.66

IN: Moving on to `Cc1ccccc1CC(=O)N(C)C1CCN(c2ccccn2)CC1`
OUT: -1.19

Every entry's value here was drawn from ChEMBL document CHEMBL3988442.
